Test: Cytotoxicity Assay (HCT116, CellTiter-Glo)
Type: cell-based
Settings: human, HCT116 cell cytotoxicity IC50
OBSERVED_PROPERTY: IC50 at 72 h

INSERT INTO assay_data (molecule, recorded_result) VALUES
  ('CC(C(=O)N(C)C)N1CCC2(CC1)CN(c1ccc(NC(=O)NCc3cccnc3)cc1)c1ccccc12 (centres unmarked)', '< 1 nM');

# get_value(readout='IC50 at 72 h', item= CC(C)(C)OC(=O)N1CCC(n2cc(C#CCCCNC(=O)NCc3cccnc3)c3ccccc32)CC1 )
≥ 100 nM

O=C(NCc1cccnc1)Nc1ccc(-n2cc(C(=O)N3CC(N4CCNCC4)C3)c3ccccc32)cc1 ?
~60 nM

O=C(/C=C/c1ccc(-n2nc(C(=O)N3CCC(N4CCCCC4)CC3)c3ccccc32)cc1)NCc1cccnc1 ?
< 100 nM

O=C(NCc1cccnc1)Nc1ccc(-n2nc(N3CCC(CN4CCOCC4)CC3)c3ccccc32)cc1 ?
< 100 nM
